test system: HOP-62; experiment: NCI tumour cell line growth inhibition, 48 h
Calls of active or inactive are those of the source. No stated cut-off is given here; in the data, active = GI50 up to about 1.1 µM and inactive = higher.
READOUT: GI50

[[record]]
compound = "O=C(O)C#CCO"
result = "> 100 µM (inactive)"

[[record]]
compound = "Cc1c2ccncc2cc2c1sc1ccncc12"
result = "1.74 µM (inactive)"

[[record]]
compound = "N#CC(Cc1ccccc1Br)N(CCC1=CCCCC1)C(c1ccccc1)c1ccccc1 (configuration not stated)"
result = "> 100 µM (inactive)"

[[record]]
compound = "COc1cc2c(cc1OC)C(=O)N(c1ccc(O)cc1)C2"
result = "> 100 µM (inactive)"


Reading of GI50 for Cc1cc(C)nc(NCCC(O)(P(=O)(O)O)P(=O)(O)O)n1 with HOP-62: > 100 µM (inactive)

Reading of GI50 for C=CCSC1=N/C(=C\c2ccco2)C(=O)N1CC=C with HOP-62: > 100 µM (inactive)

Reading of GI50 for O=C(/C(Cl)=C/c1ccccc1)c1ccccc1 with HOP-62: 19.2 µM (inactive)

* * *

system: ACHN; test: NCI tumour cell line growth inhibition, 48 h
Activity calls are given as the source filed them. Rule as the data show it: active = GI50 up to about 1.1 µM and inactive = higher.
READOUT: GI50

Solved cases below.
[[record]]
molecule = "CCOc1ccc(N2C(=O)C3c4[nH]c5ccccc5c4C4CCC(C(C)(C)C)CC4C3C2=O)cc1 (configuration not stated)"
system_name = "ACHN"
result = "57.5 µM (inactive)"

[[record]]
molecule = "COC(OC)[C@@H](C)[C@H](O)[C@](C)(O)C1OC(C)(C)OC(C(C)C=C(C)C)C1C (some centres not stated)"
system_name = "ACHN"
result = "> 100 µM (inactive)"

[[record]]
molecule = "O=C(Nc1ccc(Cl)cc1)NS(=O)(=O)c1coc2ccccc2c1=O"
system_name = "ACHN"
result = "> 10 µM (inactive)"

[[record]]
molecule = "CC(=O)CC1(OC(=O)C2C(C=C(C)C)C2(C)C)C(=O)Nc2ccccc21 (configuration not stated)"
system_name = "ACHN"
result = "78.3 µM (inactive)"

[[record]]
molecule = "Oc1c2c(c(O)c3ccccc13)C1(N=N2)c2ccccc2Oc2ccccc21"
system_name = "ACHN"
result = "3.79 µM (inactive)"

[[record]]
molecule = "Cc1ccc(-c2c(C#N)c(-c3ccccc3)n(NS(=O)(=O)c3ccccc3)c(=O)c2C#N)cc1"
system_name = "ACHN"
result = "> 100 µM (inactive)"

[[record]]
molecule = "Cc1ccc(S(=O)(=O)c2[nH]cc(/C(=C\\C3CCCCC3)[N+](=O)[O-])c2C2CCCCC2)cc1"
system_name = "ACHN"
result = "0.366 µM (active)"

[[record]]
molecule = "COc1ccc(/C(C#N)=C/c2ccc(OC)c(OC)c2)cc1"
system_name = "ACHN"
result = "> 100 µM (inactive)"


Reading of GI50 for CCn1c2ccccc2c2c(-c3ccccc3)cc3c(c21)C(=O)N(c1ccccc1)C3=O with ACHN: 99.8 µM (inactive)

Reading of GI50 for CCCCCCCCCCCCC(SCCNC(=O)CCNC(=O)C(O)C(C)(C)COP(=O)(O)OP(=O)(O)OCC1OC(n2cnc3c(N)ncnc32)C(O)C1OP(=O)(O)O)C(=O)NCC(N)=O (configuration not stated) with ACHN: 56.6 µM (inactive)

Reading of GI50 for C[C@]12CC[C@H]3[C@@H](CCC4=CC(=O)CC[C@@]43C)[C@@H]1CC[C@@H]2C(=O)COS(=O)(=O)c1ccc(Br)cc1 with ACHN: 10.9 µM (inactive)

Reading of GI50 for COc1cc2c(cc1OC)C(=O)N(c1ccc(O)cc1)C2 with ACHN: > 100 µM (inactive)

Reading of GI50 for CCCCCNC1=CC(=O)c2ccccc2C1=O with ACHN: 58.9 µM (inactive)

Reading of GI50 for O=C(CSc1nnc(Cc2ccccc2)o1)Nc1ccc(Cl)cc1[N+](=O)[O-] with ACHN: 12.6 µM (inactive)

Reading of GI50 for O=c1[nH]c(=O)n(C2CC(O)C(CO)O2)cc1C(OCC(F)(F)F)OCC(F)(F)F (configuration not stated) with ACHN: > 100 µM (inactive)

Reading of GI50 for COC(=O)c1scc(N)c1-n1ccc(=O)[nH]c1=O with ACHN: > 100 µM (inactive)

Reading of GI50 for CC(C)(C)COC(=O)C(C)(C)NC(=O)C(CC(=O)OCc1ccccc1)NC(=O)OCc1ccccc1 (configuration not stated) with ACHN: 32.9 µM (inactive)

Reading of GI50 for C[C@H](CS)C(=O)N1c2ccccc2C[C@H]1C(=O)O with ACHN: > 100 µM (inactive)
